Recorded pIC50 for the following compounds
assaySummary: Cytotoxicity against human NCI-H3122 cells after 72 hrs by WST8 assay
details: NCI-H3122, 72 h
pIC50: −log10 of the molar value.

[
  {
    "itemSmiles": "N#Cc1cccc(-c2ccc(=O)n(C[C@@H]3CN(c4ncc(-c5cnn(C6CCNCC6)c5)cn4)CCO3)n2)c1",
    "parameterMeasured": "pIC50",
    "result": "< 5.00"
  }
]

Kindly note the recorded pIC50 for `O=c1ccc(-c2cccc(F)c2)nn1C[C@@H]1CN(c2ncc(-c3cnn(C4CCNCC4)c3)cn2)CCO1` , which is 5.12

Lab note: `CN1CCC(n2cc(-c3cnc(N4CCO[C@H](Cn5nc(-c6ccc(F)c(F)c6)ccc5=O)C4)nc3)cn2)CC1` gave pIC50 of < 5.00

Data point: `N#Cc1cccc(-c2ccc(=O)n(C[C@@H]3CN(c4ncc(-c5ccnc(F)c5)cn4)CCO3)n2)c1` ; pIC50 = < 5.00
